The reported measurements were obtained from paper PMC7553946.

# Experimental Target: cholesterol 24-hydroxylase (CH24H, CYP46A1) (Homo sapiens)
# Sequence (Q9Y6A2 whole entry): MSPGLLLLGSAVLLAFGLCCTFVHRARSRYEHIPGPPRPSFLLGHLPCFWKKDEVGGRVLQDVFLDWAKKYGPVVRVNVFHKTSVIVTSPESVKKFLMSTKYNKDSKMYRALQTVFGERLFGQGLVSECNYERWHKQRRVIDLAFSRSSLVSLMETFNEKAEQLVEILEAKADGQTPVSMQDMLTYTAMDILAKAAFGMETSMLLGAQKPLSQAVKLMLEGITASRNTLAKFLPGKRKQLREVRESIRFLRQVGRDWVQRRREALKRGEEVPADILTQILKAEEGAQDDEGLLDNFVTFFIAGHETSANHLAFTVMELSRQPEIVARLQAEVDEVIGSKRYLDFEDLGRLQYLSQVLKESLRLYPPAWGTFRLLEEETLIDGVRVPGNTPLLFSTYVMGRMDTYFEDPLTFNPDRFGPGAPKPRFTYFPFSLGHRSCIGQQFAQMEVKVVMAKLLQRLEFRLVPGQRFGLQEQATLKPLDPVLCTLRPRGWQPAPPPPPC
# Assay Comment: […]cholesterol 24-hydroxylation assay by TLC with lysate of CH24H-expressing cells
Measure Name: IC50

INSERT INTO measurements (molecule_smiles, reading) VALUES
  ('O=C(c1cccnc1-c1ccncc1)N1CCC(O)(Cc2ccccc2)CC1', '4.5 nM');
